target: mouse VISTA (mVISTA) (Mus musculus, UniProt Q9D659); construct: expressed in transfected cells; host or cells: Human embryonic kidney 293T cells; assay: Cell-Based Binding High-Content Assay For mVISTA (HC CBA mVISTA); settings: 293T cells expressing mouse VISTA; competition with biotinylated peptide (2 nM); read-out: HC CBA mVISTA IC50
Sequence (Q9D659 33-308): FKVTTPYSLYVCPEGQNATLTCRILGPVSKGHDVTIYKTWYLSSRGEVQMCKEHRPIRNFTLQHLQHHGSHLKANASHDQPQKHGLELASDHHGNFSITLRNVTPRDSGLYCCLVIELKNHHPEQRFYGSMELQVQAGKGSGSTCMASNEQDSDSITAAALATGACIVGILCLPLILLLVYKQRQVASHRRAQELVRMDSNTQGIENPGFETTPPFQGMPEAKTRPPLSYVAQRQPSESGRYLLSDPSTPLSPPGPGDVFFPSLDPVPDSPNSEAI
Positions of bridges follow the written chain, without caps; N, C: chain ends. Non-standard residues stand in square brackets, D forms with d. Residues, ends and D or L forms follow the SMILES beside them. Ahp(2) = CCCCC[C@H](N)C(=O)O; NHexGly = CCCCCCNCC(=O)O

{"columns": ["Compound", "IC50, nM"],
 "data": [
  ["CCCCCCN1CC(=O)N[C@@H](Cc2ccc(O)cc2)C(=O)N[C@@H](CCCCC)C(=O)N[C@@H](CC(N)=O)C(=O)N[C@@H](CCCNC(=N)N)C(=O)N[C@@H](CC(C)C)C(=O)N[C@@H](CCCCC)C(=O)N2CCC[C@H]2C(=O)N[C@@H](C(C)C)C(=O)N[C@@H](CC(N)=O)C(=O)N[C@H](C(=O)NCC(=O)O)CSCC(=O)N[C@@H](Cc2ccccc2)C(=O)N[C@@H](Cc2ccc(O)cc2)C(=O)N[C@@H](CC(=O)O)C1=O [Example 1026] ({CH2CO}-FYD[NHexGly]Y[Ahp(2)]NRL[Ahp(2)]PVNCG-OH; thioether N-14)", 5.5],
  ["CCCCCCN1CC(=O)N[C@@H](Cc2ccc(O)cc2)C(=O)N[C@@H](CCCCC)C(=O)NCC(=O)N[C@@H](CCCNC(=N)N)C(=O)N[C@@H](CC(C)C)C(=O)N[C@@H](CCCCC)C(=O)N2CCC[C@H]2C(=O)N[C@@H](C(C)C)C(=O)N[C@@H](CO)C(=O)N[C@H](C(=O)NCC(=O)O)CSCC(=O)N[C@@H](Cc2ccccc2)C(=O)N[C@@H](Cc2ccc(O)cc2)C(=O)N[C@@H](CC(=O)O)C1=O [Example 1044] ({CH2CO}-FYD[NHexGly]Y[Ahp(2)]GRL[Ahp(2)]PVSCG-OH; thioether N-14)", 21.4]
]}

---

# maps each entry to its pIC50
target: mouse VISTA (mVISTA) (Mus musculus, UniProt Q9D659); construct: expressed in transfected cells; host or cells: Human embryonic kidney 293T cells; assay: Cell-Based Binding High-Content Assay For mVISTA (HC CBA mVISTA); conditions: read-out: HC CBA mVISTA IC50
pIC50: −log10 of the molar value. Positions of bridges follow the written chain, without caps; N, C: chain ends. Non-standard residues stand in square brackets, D forms with d. Residues, ends and D or L forms follow the SMILES beside them. ξ: configuration not given here. Phe(3-CN) = N#Cc1cccc(C[C@H](N)C(=O)O)c1; Phe(3-Me) = Cc1cccc(C[C@H](N)C(=O)O)c1; Tic = O=C(O)[C@@H]1Cc2ccccc2CN1; Aad = N[C@@H](CCCC(=O)O)C(=O)O; Ahp(2) = CCCCC[C@H](N)C(=O)O; NMeNle = CCCC[C@H](NC)C(=O)O; Tle = CC(C)(C)[C@H](N)C(=O)O; Pip = O=C(O)[C@@H]1CCCCN1; NHexGly = CCCCCCNCC(=O)O; Nle = CCCC[C@H](N)C(=O)O; Orn = NCCC[C@H](N)C(=O)O; ξS = NC(CO)C(=O)O

{"columns": ["Compound", "pIC50"],
 "data": [
  ["CCCCCCN1CC(=O)N[C@@H](Cc2ccc(O)cc2)C(=O)N[C@@H](CCCC)C(=O)N[C@@H](CC(N)=O)C(=O)N[C@@H](CCCNC(=N)N)C(=O)N2Cc3ccccc3C[C@H]2C(=O)N[C@@H](CCCCC)C(=O)N2CCC[C@H]2C(=O)N[C@@H](C(C)C)C(=O)N[C@@H](CC(=O)O)C(=O)N[C@H](C(=O)NCC(N)=O)CSCC(=O)N[C@@H](Cc2ccccc2)C(=O)N[C@@H](Cc2c[nH]c3ccccc23)C(=O)N[C@@H](CC(=O)O)C1=O [Example 1414] ({CH2CO}-FWD[NHexGly]Y[Nle]NR[Tic][Ahp(2)]PVDCG-NH2; thioether N-14)", 7.91],
  ["CCCCCCN1CC(=O)N[C@@H](Cc2ccc(O)cc2)C(=O)N[C@@H](CC(C)C)C(=O)N[C@@H](CC(N)=O)C(=O)N[C@@H](CCCNC(=N)N)C(=O)N(C)[C@@H](CCCC)C(=O)N[C@@H](CCCCC)C(=O)N2CCC[C@H]2C(=O)N[C@@H](C(C)(C)C)C(=O)N[C@@H](CO)C(=O)N[C@H](C(=O)NCC(N)=O)CSCC(=O)N[C@@H](Cc2ccccc2)C(=O)N[C@@H](Cc2cccc(C#N)c2)C(=O)N[C@@H](CC(=O)O)C1=O [compound 1340] ({CH2CO}-F[Phe(3-CN)]D[NHexGly]YLNR[NMeNle][Ahp(2)]P[Tle]SCG-NH2; thioether N-14)", 7.43],
  ["CCCCCCN1CC(=O)N[C@@H](Cc2ccc(O)cc2)C(=O)N[C@@H](CCCC)C(=O)N[C@@H](CC(=O)O)C(=O)N[C@@H](CCCN)C(=O)N[C@@H](CC(C)C)C(=O)N[C@@H](CCCCC)C(=O)N2CCC[C@H]2C(=O)N[C@@H](C(C)C)C(=O)N[C@@H](CC(=O)O)C(=O)N[C@H](C(=O)NC(CO)C(N)=O)CSCC(=O)N[C@@H](Cc2ccccc2)C(=O)N[C@@H](Cc2cccc(C)c2)C(=O)N[C@@H](CC(=O)O)C1=O (some centres unmarked) [compound 1331] ({CH2CO}-F[Phe(3-Me)]D[NHexGly]Y[Nle]D[Orn]L[Ahp(2)]PVDC[ξS]-NH2; thioether N-14)", 7.84],
  ["CCCCCCN1CC(=O)N[C@@H](Cc2ccc(O)cc2)C(=O)N[C@@H](CCCCC)C(=O)N[C@@H](CC(N)=O)C(=O)N[C@@H](CCCNC(=N)N)C(=O)N[C@@H](CC(C)C)C(=O)N[C@@H](CCCCC)C(=O)N2CCC[C@H]2C(=O)N[C@@H](C(C)C)C(=O)N[C@@H](CO)C(=O)N[C@H](C(=O)NCC(=O)O)CSCC(=O)N[C@@H](Cc2ccccc2)C(=O)N[C@@H](Cc2c[nH]c3ccccc23)C(=O)N[C@@H](CC(=O)O)C1=O [Example 1357] ({CH2CO}-FWD[NHexGly]Y[Ahp(2)]NRL[Ahp(2)]PVSCG-OH; thioether N-14)", 7.50],
  ["CCCCCCN1CC(=O)N[C@@H](Cc2ccc(O)cc2)C(=O)N[C@@H](CCCCC)C(=O)N[C@@H](CC(N)=O)C(=O)N[C@@H](CCCNC(=N)N)C(=O)N[C@@H](CC(C)C)C(=O)N[C@@H](CCCCC)C(=O)N2CCC[C@H]2C(=O)N[C@@H](C(C)C)C(=O)N[C@@H](CO)C(=O)N[C@H](C(=O)NCC(N)=O)CSCC(=O)N[C@@H](Cc2ccccc2)C(=O)N[C@@H](Cc2c[nH]c3ccccc23)C(=O)N[C@@H](CC(=O)O)C1=O [Example 1354] ({CH2CO}-FWD[NHexGly]Y[Ahp(2)]NRL[Ahp(2)]PVSCG-NH2; thioether N-14)", 7.69],
  ["CCCCCCN1CC(=O)N[C@@H](Cc2ccc(O)cc2)C(=O)N[C@@H](CCCC)C(=O)N[C@@H](CC(N)=O)C(=O)N[C@@H](CCCNC(=N)N)C(=O)N(C)[C@@H](CCCC)C(=O)N[C@@H](CCCCC)C(=O)N2CCCC[C@H]2C(=O)N[C@@H](C(C)C)C(=O)N[C@@H](CO)C(=O)N[C@H](C(=O)NCC(N)=O)CSCC(=O)N[C@@H](Cc2ccccc2)C(=O)N[C@@H](Cc2c[nH]c3ccccc23)C(=O)N[C@@H](CC(=O)O)C1=O [compound 1145] ({CH2CO}-FWD[NHexGly]Y[Nle]NR[NMeNle][Ahp(2)][Pip]VSCG-NH2; thioether N-14)", 7.54],
  ["CCCCCCN1CC(=O)N[C@@H](Cc2ccc(O)cc2)C(=O)N[C@@H](CCCC(=O)O)C(=O)N[C@@H](CC(N)=O)C(=O)N[C@@H](CCCNC(=N)N)C(=O)N(C)[C@@H](CCCC)C(=O)N[C@@H](CCCCC)C(=O)N2CCC[C@H]2C(=O)N[C@@H](C(C)(C)C)C(=O)N[C@@H](CC(=O)O)C(=O)N[C@H](C(N)=O)CSCC(=O)N[C@@H](Cc2ccccc2)C(=O)N[C@@H](Cc2c[nH]c3ccccc23)C(=O)N[C@@H](CC(=O)O)C1=O [compound 1169] ({CH2CO}-FWD[NHexGly]Y[Aad]NR[NMeNle][Ahp(2)]P[Tle]DC-NH2; thioether N-14)", 7.42],
  ["CCCCCCN1CC(=O)N[C@@H](Cc2ccc(O)cc2)C(=O)N[C@@H](CCCC)C(=O)N[C@@H](CC(N)=O)C(=O)N[C@@H](CCCNC(=N)N)C(=O)N(C)[C@@H](CCCC)C(=O)N[C@@H](CCCCC)C(=O)N2CCC[C@H]2C(=O)N[C@@H](C(C)(C)C)C(=O)N[C@@H](CO)C(=O)N[C@H](C(=O)NCC(N)=O)CSCC(=O)N[C@@H](Cc2ccccc2)C(=O)N[C@@H](Cc2c[nH]c3ccccc23)C(=O)N[C@@H](CC(=O)O)C1=O [Example 1391] ({CH2CO}-FWD[NHexGly]Y[Nle]NR[NMeNle][Ahp(2)]P[Tle]SCG-NH2; thioether N-14)", 7.44]
]}
